Just for reference, patent US20220370416A1 is where these values come from.

Entries and their DC50
# assayTarget: HiBit-KRAS^G12C (Homo sapiens, UniProt P01116, G12C)
# Sequence (P01116 1-186 isoform P01116-2 G12C limits assumed): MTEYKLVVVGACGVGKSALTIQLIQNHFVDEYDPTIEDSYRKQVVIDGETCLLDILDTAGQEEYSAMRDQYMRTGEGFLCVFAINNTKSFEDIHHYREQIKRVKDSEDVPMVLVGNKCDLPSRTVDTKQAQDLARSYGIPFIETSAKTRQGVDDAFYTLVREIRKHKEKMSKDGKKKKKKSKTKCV
# test: HiBit degradation assay in SW1573 HiBit-KRas^G12C cells
# Type: cell-based
# Parameters: expressed in transfected cells; host or cells: SW1573 (clone E6), modified pcDNA3.1 vector, TK promoter
# conditions: SW1573 HiBit-KRas^G12C, 0.1% DMSO, 24 hours; read-out: KRas^G12C-HIBit (SW1573; 0.1% DMSO) DC50*
reportedEndpoint: DC50

compound	recordedValue
C=CC(=O)N1CCN(c2nc(O[C@H](C)CN3CCC(OCCOc4cc(-c5scnc5C)ccc4CNC(=O)[C@@H]4C[C@@H](O)CN4C(=O)[C@@H](c4cc(C)no4)C(C)C)CC3)nc3c(F)c(-c4cc(O)cc5ccccc45)c(Cl)cc23)CC1 [Compound 78]	> 1000 nM
C=CC(=O)N1CCN(c2nc(O[C@H](C)CN3CCC(COCC(=O)N[C@H](C(=O)N4C[C@H](O)C[C@H]4C(=O)N[C@@H](C)c4ccc(-c5scnc5C)cc4)C(C)(C)C)CC3)nc3c(F)c(-c4cc(O)cc5ccccc45)c(Cl)cc23)CC1 [Compound 65]	100 to 1000 nM
C=CC(=O)N1CCN(c2nc(O[C@H](C)CN3CCC(COCC(=O)N[C@H](C(=O)N4C[C@H](O)C[C@H]4C(=O)N[C@@H](C)c4ccc(-c5scnc5C)cc4)C(C)(C)C)CC3)nc3c(F)c(-c4cc(O)cc5cccc(C)c45)c(Cl)cc23)CC1 [Compound 11]	100 to 1000 nM
C=CC(=O)N1CCN(c2nc(O[C@H](C)CN3CCC(OCCOCC(=O)N[C@H](C(=O)N4C[C@H](O)C[C@H]4C(=O)N[C@@H](C)c4ccc(-c5scnc5C)cc4)C(C)(C)C)CC3)nc3c(F)c(-c4c(O)cccc4F)c(Cl)cc23)CC1 [Compound 61]	100 to 1000 nM
